system: MCF-7 cells; experiment: MCF-7 cell growth, % of control; assay type: cell-based, human; settings: Homo sapiens, MCF7; 10^-7 M, 37° C., 24 hours; ± standard deviation of four samples; >100 = growth stimulating (estrogenic)
The following molecules are listed with their measured activity at 0.1 µM values.
Give just the numeric value; % need not be written.

>>> recorded_result("CC/C(=C(\\c1ccc(Br)cc1)c1ccc(OCCN(C)C)cc1)c1ccccc1 [4-Bromotamoxifen]")
101

Input line: Name the recorded activity at 0.1 µM for CC/C(=C(/c1ccc(Br)cc1)c1ccc(OCCN(C)C)cc1)c1ccccc1 [Z isomer of 4-bromotamoxifen, reference compound] .
Output line: 163

Input line: Dear colleague, I am looking for the recorded activity at 0.1 µM of the following molecule: CC/C(=C(/c1ccc(OCCN(C)C)cc1)c1cccc(I)c1)c1ccccc1 [3-Iodotamoxifen]
Output line: 68

Input line: Which activity at 0.1 µM value is on record for CC/C(=C(\c1ccc(I)cc1)c1ccc(OCCN(CC)CC)cc1)c1ccccc1 ?
Output line: 35

====

tested on: MCF-7 cells; test: MCF-7 cell growth, % of control; assay type: cell-based, human; details: Homo sapiens, MCF7; 10^-7 M, 37° C., 24 hours; ± standard deviation of four samples; >100 = growth stimulating (estrogenic)
Listed below: activity at 0.1 µM values for each entry.
The reply should be a number in %, with the unit left off.

>>> recorded_result("CC/C(=C(\\c1ccc(I)cc1)c1ccc(OCCN2CCCC2)cc1)c1ccccc1")
27
>>> recorded_result("CC/C(=C(/c1ccc(I)cc1)c1ccc(OCCN(C)C)cc1)c1ccccc1 [Z isomer of 4-iodotamoxifen, reference compound]")
126
>>> recorded_result("CC/C(=C(\\c1ccc(I)cc1)c1ccc(OCCN(C)C)cc1)c1ccccc1")
42

Let's switch to this compound now.
Input line: Form field: reported activity at 0.1 µM of CC/C(=C(\c1ccccc1)c1ccc(OCCN(C)C)cc1)c1ccccc1
Output line: 52
